Each entry below lists one item and its recorded shrunken log2 fold change value.
Tested on: Escherichia coli TOP10
Assay: shrunken log2 fold change of peptide-encoding DNA abundance (4.5 h post-induction vs induction); higher = less antimicrobial activity (less host growth inhibition)
Settings: time post-induction: 4.5 h; library: site-saturation at positions 5, 18, 19, 20
Output: the number by itself.

Some sequences with known shrunken log2 fold change results, for comparison:
{"columns": ["SEQUENCE ENTRY", "TGT", "shrunken log2 fold change"],
 "data": [
  ["RRIRLRPPRLPRPRPRPSEMPRP", "Escherichia coli TOP10", -0.0614],
  ["RRIRLRPPRLPRPRPRPADDPRP", "Escherichia coli TOP10", -0.088],
  ["RRIRTRPPRLPRPRPRPGSDPRP", "Escherichia coli TOP10", 0.424],
  ["RRIRARPPRLPRPRPRPSHCPRP", "Escherichia coli TOP10", -0.101],
  ["RRIRFRPPRLPRPRPRPIAEPRP", "Escherichia coli TOP10", 0.2],
  ["RRIRQRPPRLPRPRPRPYPRPRP", "Escherichia coli TOP10", -0.258],
  ["RRIRIRPPRLPRPRPRPTCTPRP", "Escherichia coli TOP10", -0.807],
  ["RRIRPRPPRLPRPRPRPMASPRP", "Escherichia coli TOP10", 0.011],
  ["RRIRYRPPRLPRPRPRPRDVPRP", "Escherichia coli TOP10", -0.0023],
  ["RRIRARPPRLPRPRPRPHWSPRP", "Escherichia coli TOP10", -0.0356]
]}

[Q] Please provide the recorded shrunken log2 fold change for RRIRPRPPRLPRPRPRPRIMPRP , tested on Escherichia coli TOP10.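 Also: peptides expressed intracellularly from a pBAD plasmid library in pooled LB shake-flask culture, induced with 0.3% L-arabinose, DNA abundance read by NGS, three biological replicates, DESeq2 with apeglm shrinkage.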
[A] -0.0771

[Q] For RRIRDRPPRLPRPRPRPDYGPRP then?
[A] -0.181

[Q] For RRIRGRPPRLPRPRPRPATGPRP then?
[A] 0.308

[Q] For RRIRYRPPRLPRPRPRPQAPPRP then?
[A] -0.0309

[Q] For RRIRWRPPRLPRPRPRPENMPRP then?
[A] -0.185

[Q] For RRIRIRPPRLPRPRPRPNRKPRP then?
[A] 0.00157

[Q] For RRIRARPPRLPRPRPRPNAMPRP then?
[A] 0.272

[Q] For RRIRSRPPRLPRPRPRPELTPRP then?
[A] 0.316

[Q] For RRIRCRPPRLPRPRPRPQCGPRP then?
[A] -0.609

[Q] For RRIRFRPPRLPRPRPRPTVLPRP then?
[A] -0.0624

[Q] For RRIRWRPPRLPRPRPRPGDQPRP then?
[A] 0.175

[Q] For RRIRVRPPRLPRPRPRPMTFPRP then?
[A] -0.0219

[Q] For RRIRTRPPRLPRPRPRPAQIPRP then?
[A] 0.358

[Q] For RRIRARPPRLPRPRPRPDAWPRP then?
[A] 1.05
